Test system: scented mayweed (Matricaria chamomila L; MATCH)
Test: Postemergence herbicidal activity, greenhouse, visual injury: scented mayweed
Format: in vivo
Parameters: key: % visual injury: 0 = no injury, 100 = complete kill
Details: applied alone, 140 g/ha
Where a name gives a salt, the structure may show the parent alone.
Give measured MATCH Ob for each item. Keep answers brief.
One number for each entry.

Answered cases to consult:
[
  {
    "molecule": "N#C/C(=N\\OCC1OCCO1)c1ccccc1",
    "MATCH Ob": 0
  },
  {
    "molecule": "CC1(C)OC(c2ccco2)CN1C(=O)C(Cl)Cl (stereo not shown)",
    "MATCH Ob": 0
  },
  {
    "molecule": "Clc1cc(Cl)nc(-c2ccccc2)n1",
    "MATCH Ob": 0
  }
]

With those in mind, consider the next molecule.
Let me know recorded MATCH Ob for COc1c(Cl)ccc(-c2cc(N)c(Cl)c(C(=O)O)n2)c1F [Compound 1 TEA salt] , thanks. 80

----------
Test system: barley (Hordeum vulgare L; HORVS)
Experiment: Postemergence herbicidal safening, greenhouse, visual injury: barley
Assay type: in vivo
Details: applied alone, 140 g/ha
Experimental: Evaluation of Postemergence Herbicidal Safening in Cereal Crops […] The treated plants and control plants were placed in a greenhouse as described above and watered by sub-irrigation to prevent wash-off of the test compounds. After 20-22 d, the condition of the test plants as compared with that of the control plants was determined visually and scored on a scale of 0 to 100 percent where 0 corresponds to no injury and 100 corresponds to complete kill. […]
Where a name gives a salt, the structure may show the parent alone.
For each entry below, report its HORVS Ob value.
Give bare numbers, in %.

Worked set:
[
  {
    "compound": "COc1c(Cl)ccc(-c2cc(N)c(Cl)c(C(=O)O)n2)c1F [Compound 1 TEA salt]",
    "measured_value": 16
  },
  {
    "compound": "N#C/C(=N\\OCC1OCCO1)c1ccccc1",
    "measured_value": 0
  },
  {
    "compound": "CCOC(=O)C1=NN(c2ccc(Cl)cc2Cl)C(C)(C(=O)OCC)C1 (centres unmarked)",
    "measured_value": 0
  }
]

// for each compound below, give its HORVS Ob
1. FC(F)(F)C(=NOCC1OCCO1)c1ccc(Cl)cc1
2. CC1(C)OC(c2ccco2)CN1C(=O)C(Cl)Cl (centres unmarked)

[0, 0]
